assay: Oral administration to dogs, plasma levels of compound of formula I (bioavailability); assay type: in vivo; settings: dog, plasma level of compound of formula I
MEASURED ATTRIBUTE: Cmax (ng/mL)

• Cc1ccc(C(=O)NNC(=O)c2c(C)cccc2Cl)cc1C#Cc1ccc(NC(=O)C2CC2)nc1 = 41

---

experiment: Oral administration to dogs, plasma levels of compound of formula I (bioavailability); assay type: in vivo; details: dog, plasma level of compound of formula I
MEASURED ATTRIBUTE: AUC(0-t) (ng·h/mL)

* Cc1ccc(C(=O)NNC(=O)c2c(C)cccc2Cl)cc1C#Cc1ccc(NC(=O)C2CC2)nc1 | 290
